Values compiled from ChEMBL document CHEMBL1201862.

biological target: Trace amine-associated receptor 1 (Homo sapiens); assay: Fluorescence-based cell-based high throughput dose response assay to identify agonists of the human trace amine associated receptor 1 (TAAR1).; type: functional
Sequence (Q96RJ0 whole entry): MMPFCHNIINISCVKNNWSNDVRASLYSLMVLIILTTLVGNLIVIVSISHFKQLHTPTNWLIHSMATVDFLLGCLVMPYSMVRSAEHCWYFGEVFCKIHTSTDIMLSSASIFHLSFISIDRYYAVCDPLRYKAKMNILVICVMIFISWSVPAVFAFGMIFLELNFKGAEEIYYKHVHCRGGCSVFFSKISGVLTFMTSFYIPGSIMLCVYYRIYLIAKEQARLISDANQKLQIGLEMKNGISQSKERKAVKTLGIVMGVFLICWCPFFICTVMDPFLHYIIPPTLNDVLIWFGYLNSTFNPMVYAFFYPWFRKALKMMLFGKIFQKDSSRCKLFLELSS
Calls of active or inactive are those of the source. Rule as the data show it: active = EC50 of 10 µM or less and inactive = more.
Thanks in advance; please answer with one of these: label 1 for active, label 0 for inactive

Compound: COc1ncnc2c1ncn2CCCNCC(C)c1ccccc1 (centres undefined)
Label class: label 1
--
Compound: COc1cc(CNCCc2ccccc2F)ccc1OCc1ccc(Cl)nc1
Label class: label 1

query: I would be grateful if you could indicate the recorded call for COc1ccc(Nc2nc(N3CCCC3)c3ccccc3n2)cc1 .
result: label 1

query: I would be grateful if you could indicate the recorded call for O=C(N[C@H](C(=O)N1CCC[C@H]1C(=O)NCCc1ccccc1Cl)C1CCCCC1)C1CC1 .
result: label 0
